experimental protocol: solvent given as SMILES
run parameters: in ClCCl
measure: emission maximum (nm)

input smiles	measure	numeric readout
COc1ccc2c(c1)[nH]c1c3[nH]c4cc(OC)ccc4c3c3nsnc3c21	emission maximum	540
N#CC(C#N)=Cc1ccc2c(c1)c1ccccc1n2-c1cc2ccccc2c2ccccc12	emission maximum	480
C1=Cc2nc1c(-c1ccccc1)c1ccc([nH]1)c(-c1ccccc1)c1nc(c(-c3ccccc3)c3ccc([nH]3)c2-c2ccccc2)C=C1	emission maximum	651
O=C1C(=c2c(=O)c3c4ccccc4cc4cc5ccccc5c2c43)C(=O)c2ccccc21	emission maximum	599
O=C1c2cccc3c(-n4c5ccccc5c5ccccc54)ccc(c23)C(=O)N1C1CCCCC1	emission maximum	563

====

experimental protocol: solvent given as SMILES
run parameters: in CCOC(C)=O

input smiles	emission maximum (nm)
CCn1c2ccccc2c2cc(C#Cc3cc(C#Cc4ccc5c(c4)c4ccccc4n5CC)ncn3)ccc21	445
CN(C)c1ccc(-c2ccc3n2[B-](F)(F)[N+]2=C(c4ccccc4)C=CC2=C3C(F)(F)F)cc1	755
c1ccc(N(c2ccccc2)c2ccc(-c3cccc4nc5ccccc5cc34)cc2)cc1	532
[C-]#[N+]c1ccc(-c2ccc(N)cc2)cc1	397
O=c1[nH]c(=O)n([C@@H]2O[C@H](CO)[C@@H](O)[C@H]2O)c2ccsc12	345
CCCCCCCCC1(CCCCCCCC)c2cc(-c3ccc(C(F)(F)F)cc3)ccc2-c2ccc(N(c3ccc(-n4c5ccccc5c5ccccc54)cc3)c3ccc4c(c3)C(CCCCCCCC)(CCCCCCCC)c3cc(-c5ccc(C(F)(F)F)cc5)ccc3-4)cc21	450
CCN(CC)c1ccc(OC)c(C=O)c1	518
CC(=O)Nc1ccc2c3cccc4cccc(c5cccc1c52)c43	471
Oc1ccccc1/N=C/c1ccccc1Oc1ccccc1	400
O=c1oc2ccc(Cl)cc2cc1-c1cc2cc(Cl)ccc2o1	429
CC1(C)CC(/C=C/c2ccc(-n3ccnc3)cc2)=CC(=C(C#N)C#N)C1	518
O=C(O)COc1ccc2[nH]c3c(c2c1)CCCC3=O	410
CC1(C)CC(/C=C/c2ccc(N3CCOCCOCCOCCOCC3)cc2)=CC(=C(C#N)C#N)C1	618

====

experimental protocol: solvent given as SMILES
run parameters: in ClCCl
measure: emission maximum (nm)

input smiles	measure	numeric readout
CC(C)(C)c1cc2ccc3c(N(c4ccc(F)cc4)c4ccc(F)cc4)cc(N(c4ccc(F)cc4)c4ccc(F)cc4)c4ccc(c1)c2c34	emission maximum	465
Cn1c(=O)c(/N=N/c2cc(S(=O)(=O)O)ccc2S(=O)(=O)O)c(O)c2ccccc21	emission maximum	493
CC1=CC(C)=[N+]2C1=C(c1ccccc1)c1c(C)cc(C)n1[B-]2(F)F	emission maximum	513
C(=C\c1nc2ccccc2s1)/c1ccc(-c2nc3c4cccnc4c4ncccc4c3[nH]2)cc1	emission maximum	472

====

experimental protocol: solvent given as SMILES
run parameters: in ClC(Cl)Cl
Use 500 nm as the dividing line for emission maximum, with the line itself on the true side and lower values as false.

molecule	assigned label
CC(C)(C)c1cc(C(C)(C)C)c2oc3c(c2c1)C=CN1C(=O)C2=C4c5oc6c(C(C)(C)C)cc(C(C)(C)C)cc6c5C=CN4C(=O)C2=C31	true
N#C/C(=C\c1cc(/C=C(\C#N)c2ccc(C(F)(F)F)cc2)c(-c2ccc(N(c3ccccc3)c3ccccc3)cc2)cc1-c1ccc(N(c2ccccc2)c2ccccc2)cc1)c1ccc(C(F)(F)F)cc1	true
CN(C)c1ccc2cc(C3=[O+][B-](F)(F)OC(c4ccccc4)=C3)ccc2c1	true
COc1ccc(/C=C/C(=O)c2ccccc2O)cc1OC	false
O=Cc1ccc(C#CC(C#Cc2ccc(C=O)o2)=Cc2ccc(C=C(C#Cc3ccc(C=O)o3)C#Cc3ccc(C=O)o3)s2)o1	true
O=C1CC(c2ccccc2)c2c(c3ccccc3c3nc4ccccc4nc23)O1 (stereo not drawn)	false
CN(C)c1ccc(-c2ccc(-c3cc(-c4ccccc4)c(-c4ccccc4)c(-c4ccccc4)c3-c3ccccc3)nc2)cc1	false
